- Assayed target: human CB2 receptors (Homo sapiens (Human), UniProt P34972)
- Sequence (P34972 whole entry): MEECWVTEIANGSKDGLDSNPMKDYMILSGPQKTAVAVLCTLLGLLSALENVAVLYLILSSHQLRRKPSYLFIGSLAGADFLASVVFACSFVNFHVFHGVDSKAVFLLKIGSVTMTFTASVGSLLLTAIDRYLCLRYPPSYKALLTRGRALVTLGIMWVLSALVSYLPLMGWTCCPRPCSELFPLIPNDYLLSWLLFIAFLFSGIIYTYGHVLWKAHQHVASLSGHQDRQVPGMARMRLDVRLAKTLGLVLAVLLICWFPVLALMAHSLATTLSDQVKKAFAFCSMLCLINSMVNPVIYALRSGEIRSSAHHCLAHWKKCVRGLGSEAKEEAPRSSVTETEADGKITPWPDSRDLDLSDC
pKi: −log10 of the molar value.
Quick rule for you: pKi at 8 or higher means true (1), lower means false (0).

Previously resolved entries follow.
Compound	Category
CCCCn1/c(=N/C(=O)c2cc(C(F)(F)F)ccc2OC[C@@H]2CCCN2C)sc2ccncc21 [Example 33]	false (0)
CC(C)Cn1cc(C(C)(C)C)s/c1=N\C(=O)c1cc(C(F)(F)F)ccc1OCCO [Example 19]	true (1)
CC(C)Cn1cc(C(C)(C)C)s/c1=N\C(=O)c1cc(C(F)(F)F)ccc1OCCN1CCCC1 [Example 7]	false (0)
CCCCn1/c(=N/C(=O)c2cc(C(F)(F)F)ccc2OCCNC(C)=O)sc2ccncc21 [Example 25]	true (1)

Let us examine a further case.
Q. Hello, I need to know if CC(C)Cn1cc(C(C)(C)C)s/c1=N\C(=O)c1cc(C(F)(F)F)ccc1OC[C@@H]1CCN1 [Example 14] has measured pKi not below 8. Thanks!
A. false (0)

----------
- Assayed target: UniProt:Q9QZN9
- Assay: rat CB2 cyclase functional assay (HitHunter cAMP)
- Protocol conditions: HEK cells, forskolin 18 μM
pEC50: −log10 of the molar value.
Quick rule for you: pEC50 at 9 or higher means satisfied, lower means not satisfied.

Previously resolved entries follow.
Molecule	Category
CC(C)Cn1cc(C(C)(C)C)s/c1=N\C(=O)c1cc(C(F)(F)F)ccc1OC[C@@H]1CCN1C	not satisfied
CC(C)Cn1cc(C(C)(C)C)s/c1=N\C(=O)c1cc(C(F)(F)F)ccc1OC[C@@H]1CCN1	satisfied
CC(C)Cn1cc(C(C)(C)C)s/c1=N\C(=O)c1cc(C(F)(F)F)ccc1OCc1ccco1	not satisfied

Let us examine a further case.
Q. Hello, I need to know if CC(C)Cn1cc(C(C)(C)C)s/c1=N\C(=O)c1cc(C(F)(F)F)ccc1OCC1CCOC1 (centres unmarked) has measured pEC50 not below 9. Thanks!
A. satisfied

----------
- Assayed target: UniProt:Q9QZN9
- Assay: rat CB2 cyclase functional assay (HitHunter cAMP)
- Format: cell-based
- Protocol conditions: HEK cells, forskolin 18 μM
Outcome measure: EC50 (nM)
Express your answer in nM, writing the number without its unit.

Use these answered entries as a reference point.
Molecule	EC50 (nM)
CCCCn1cc(C(C)(C)C)s/c1=N\C(=O)c1cc(C(F)(F)F)ccc1OC[C@@H]1CCCN1C	0.97
CC(C)Cn1cc(C(C)(C)C)s/c1=N\C(=O)c1cc(Br)ccc1OC[C@@H]1CCCN1C	0.75
CCCCn1cc(C(C)(C)C)s/c1=N\C(=O)c1cc(Cl)ccc1OCC(N)=O	0.07
CCCCn1/c(=N/C(=O)c2cc(C(F)(F)F)ccc2OCCNC(C)=O)sc2ccncc21	0.11
CC(=O)OCCOc1ccc(C(F)(F)F)cc1C(=O)/N=c1\sc(C(C)(C)C)cn1CC(C)C	0.19

// EC50 value for "CN1CCC[C@H]1COc1ccc(C(F)(F)F)cc1C(=O)/N=c1\sc(C(C)(C)C)cn1CC1(O)CCC1" : 0.41

// EC50 value for CC(C)Cn1cc(C(C)(C)C)s/c1=N\C(=O)c1cc(Cl)ccc1OCC1CCO1 (centres unmarked) : 0.23

// EC50 value for "CC(C)Cn1cc(C(C)(C)C)s/c1=N\C(=O)c1cc(C(F)(F)F)ccc1OCCO" : 0.13

----------
The following molecules are listed with their measured Ki values.
- Assayed target: human CB2 receptors (Homo sapiens (Human), UniProt P34972)
Express your answer in nM, writing the number without its unit.

Molecule	Assayed target	Result units	Ki
CCCCn1cc(C(C)(C)C)s/c1=N\C(=O)c1cc(C(F)(F)F)ccc1OCC(C)(C)O [Example 32]	human CB2 receptors (Homo sapiens (Human), UniProt P34972)	nM	0.82
CCCCn1/c(=N/C(=O)c2cc(C(F)(F)F)ccc2OCC(C)(C)O)sc2ccncc21 [Example 21]	human CB2 receptors (Homo sapiens (Human), UniProt P34972)	nM	5.4
CC(C)Cn1cc(C(C)(C)C)s/c1=N\C(=O)c1cc(C(F)(F)F)ccc1O[C@H]1CCN(C)C1 [Example 13]	human CB2 receptors (Homo sapiens (Human), UniProt P34972)	nM	111
CCCCn1/c(=N/C(=O)c2cc(C(F)(F)F)ccc2OC[C@@H](C)O)sc2ccncc21 [Example 28]	human CB2 receptors (Homo sapiens (Human), UniProt P34972)	nM	75
CC(C)Cn1cc(C(C)(C)C)s/c1=N\C(=O)c1cc(C(F)(F)F)ccc1OCCn1ccnc1 [Example 6]	human CB2 receptors (Homo sapiens (Human), UniProt P34972)	nM	96

Field: next molecule
// Ki value for CC(C)Cn1cc(C(C)(C)C)s/c1=N\C(=O)c1cc(C(F)(F)F)ccc1OC[C@@H]1CCCN1C [Example 5] : 39

----------
- Assayed target: rat CB2 receptors (Rattus norvegicus (Rat), UniProt Q9QZN9)
- Sequence (Q9QZN9 whole entry): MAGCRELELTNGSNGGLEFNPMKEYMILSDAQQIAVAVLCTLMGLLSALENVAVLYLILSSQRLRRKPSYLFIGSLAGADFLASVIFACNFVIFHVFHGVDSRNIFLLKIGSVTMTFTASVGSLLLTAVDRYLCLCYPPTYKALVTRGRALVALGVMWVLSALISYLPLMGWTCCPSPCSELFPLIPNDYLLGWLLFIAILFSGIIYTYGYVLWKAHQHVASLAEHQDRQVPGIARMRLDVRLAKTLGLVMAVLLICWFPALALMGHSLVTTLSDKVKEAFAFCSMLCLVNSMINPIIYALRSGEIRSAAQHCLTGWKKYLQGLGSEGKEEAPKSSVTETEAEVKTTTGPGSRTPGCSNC
Outcome measure: pKi
Please treat pKi as minus the base-10 logarithm of the molar concentration.

Compound	pKi
CC(C)Cn1cc(C(C)(C)C)s/c1=N\C(=O)c1cc(C(F)(F)F)ccc1OCCn1ccnc1 [Example 6]	7.41
CCCCn1/c(=N/C(=O)c2cc(C(F)(F)F)ccc2OC[C@H](C)O)sc2ccncc21 [Example 29]	8.60
CC(C)Cn1cc(C(C)(C)C)s/c1=N\C(=O)c1cc(C(F)(F)F)ccc1OCC1CCOC1 (centres unmarked) [Example 8]	8.62
CC(C)(O)COc1ccc(C(F)(F)F)cc1C(=O)/N=c1\sc2ccncc2n1CC1CCC1 [Example 26]	8.13
CC(C)Cn1cc(C(C)(C)C)s/c1=N\C(=O)c1cc(C(F)(F)F)ccc1OCCO [Example 19]	9.82

// pKi value for CC(C)Cn1cc(C(C)(C)C)s/c1=N\C(=O)c1cc(C(F)(F)F)ccc1OCCN1CCCC1 [Example 7] : 7.92

// pKi value for CC(C)Cn1cc(C(C)(C)C)s/c1=N\C(=O)c1cc(Br)ccc1OC[C@@H]1CCCN1C [Example 1] : 7.72

// pKi value for CCCCn1/c(=N/C(=O)c2cc(C(F)(F)F)ccc2OCC(C)(C)O)sc2ccncc21 [Example 21] : 8.03

----------
- Assayed target: UniProtKB Q9QZN9
pKi: −log10 of the molar value.
Quick rule for you: pKi at 8 or higher means true, lower means false.

Molecule	Category
CCCCn1cc(C(C)(C)C)s/c1=N\C(=O)c1cc(C(F)(F)F)ccc1OCC(C)(C)O [Example 32]	true
CCCCn1/c(=N/C(=O)c2cc(C(F)(F)F)ccc2OCCC(C)(C)O)sc2ccncc21 [Example 20]	false
C#CCCn1cc(C(C)(C)C)s/c1=N\C(=O)c1cc(C(F)(F)F)ccc1ONC(C)(C)C [Example 30]	true
CC(C)(C)c1cn(CCC(F)(F)F)/c(=N/C(=O)c2cc(C#N)ccc2OC2CCC2)s1 [Example 17]	true
CCCCn1cc(C(C)(C)C)s/c1=N\C(=O)c1cc(Cl)ccc1OCC(N)=O [Example 2]	true
CC(C)Cn1cc(C(C)(C)C)s/c1=N\C(=O)c1cc(C(F)(F)F)ccc1OC[C@@H]1CCCN1C [Example 5]	false
C=C=CCn1cc(C(C)(C)C)s/c1=N\C(=O)c1cc(C(F)(F)F)ccc1ONC(C)(C)C [Example 31]	true
CCCCn1cc(C(C)(C)C)s/c1=N\C(=O)c1cc(C(F)(F)F)ccc1NNC(=O)c1ccncc1 [Example 38]	true

Q. Hello, I need to know if CCCCn1/c(=N/C(=O)c2cc(C(F)(F)F)ccc2OCC(C)(C)O)sc2ncccc21 [Example 35] has measured pKi not below 8. Thanks!
A. false

Q. Hello, I need to know if Cc1s/c(=N\C(=O)c2cc(C(F)(F)F)ccc2OC[C@@H]2CCCN2C)n(CC2CC2)c1C [Example 24] has measured pKi not below 8. Thanks!
A. false

Q. Hello, I need to know if CC(C)Cn1cc(C(C)(C)C)s/c1=N\C(=O)c1cc(Cl)ccc1OC1CC1 [Example 15] has measured pKi not below 8. Thanks!
A. true

----------
- Assayed target: human CB2 receptors (Homo sapiens (Human), UniProt P34972)
Grouping key: Ki. Bins: lower band = under 5 nM, central band = from 5 nM up to 40 nM, upper band = 40 nM and over

Q. Could you place CC(C)(C)c1cn(CCC(F)(F)F)/c(=N/C(=O)c2cc(C#N)ccc2OC2CCC2)s1 [Example 17] in its proper category? Many thanks.
A. upper band

Q. Could you place CCCCn1/c(=N/C(=O)c2cc(C(F)(F)F)ccc2ONC(C)(C)C)sc2ccncc21 [Example 22] in its proper category? Many thanks.
A. upper band

Q. Could you place CC(C)Cn1cc(C(C)(C)C)s/c1=N\C(=O)c1cc(C(F)(F)F)ccc1OC[C@@H]1CCN1C [Example 12] in its proper category? Many thanks.
A. central band
